# target: Phosphatidylinositol 4,5-bisphosphate 3-kinase catalytic subunit delta isoform (Homo sapiens, UniProt O00329)
# Sequence (O00329 whole entry, canonical isoform): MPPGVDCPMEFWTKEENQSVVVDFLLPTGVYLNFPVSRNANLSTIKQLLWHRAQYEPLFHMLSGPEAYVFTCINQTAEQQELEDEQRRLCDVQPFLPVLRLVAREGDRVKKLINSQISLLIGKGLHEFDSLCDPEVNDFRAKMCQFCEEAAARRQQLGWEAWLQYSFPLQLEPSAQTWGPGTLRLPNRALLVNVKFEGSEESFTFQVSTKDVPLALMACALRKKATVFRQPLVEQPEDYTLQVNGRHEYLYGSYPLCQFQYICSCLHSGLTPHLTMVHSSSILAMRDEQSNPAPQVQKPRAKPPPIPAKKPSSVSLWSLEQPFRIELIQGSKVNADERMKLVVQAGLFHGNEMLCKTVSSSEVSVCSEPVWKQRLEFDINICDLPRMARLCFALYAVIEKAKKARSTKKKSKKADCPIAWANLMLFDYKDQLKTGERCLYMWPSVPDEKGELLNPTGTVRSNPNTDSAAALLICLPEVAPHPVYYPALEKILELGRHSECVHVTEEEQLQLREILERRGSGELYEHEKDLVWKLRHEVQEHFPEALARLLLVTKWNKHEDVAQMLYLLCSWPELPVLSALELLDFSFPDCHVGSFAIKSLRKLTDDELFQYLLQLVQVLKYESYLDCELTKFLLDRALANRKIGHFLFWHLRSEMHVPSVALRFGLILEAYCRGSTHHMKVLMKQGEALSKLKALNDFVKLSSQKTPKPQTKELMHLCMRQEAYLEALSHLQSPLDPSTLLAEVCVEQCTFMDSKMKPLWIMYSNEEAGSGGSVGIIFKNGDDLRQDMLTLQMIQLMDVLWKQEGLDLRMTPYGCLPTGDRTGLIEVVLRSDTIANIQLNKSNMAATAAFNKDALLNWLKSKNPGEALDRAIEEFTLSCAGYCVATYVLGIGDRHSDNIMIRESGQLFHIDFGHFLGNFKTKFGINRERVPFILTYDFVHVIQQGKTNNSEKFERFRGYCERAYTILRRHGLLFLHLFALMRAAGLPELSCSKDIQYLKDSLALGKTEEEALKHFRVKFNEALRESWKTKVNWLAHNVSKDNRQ
# experimental_details: Inhibition of PI3Kdelta (unknown origin) pre-incubated for 20 mins before phosphatidylinositol 4, 5-bisphosphate substrate addition by kinase-glo plus luminescence assay
pIC50: −log10 of the molar value.
quantity_measured: pIC50

Here's what some known entries look like.
{"structure": "CCSc1ccc(-c2ccc3nc(N)sc3c2)cn1", "pIC50": 5.70}
{"structure": "CCOc1ccc(-c2ccc3nc(N)sc3c2)cn1", "pIC50": 5.40}
{"structure": "COc1ccc(-c2ccc3nc(N)sc3c2)cn1", "pIC50": 6.10}

A. CCn1cc(-c2ccc3nc(N)sc3c2)cn1
B. Nc1nc2ccc(-c3ccc(OCCO)nc3)cc2s1
C. Nc1nc2ccc(-c3ccn(CC4CC4)c(=O)c3)cc2s1
Rank entries according to their pIC50, from the largest number down. Ranked list of labels, please, in the requested order.
B, C, A

1. CC(C)n1cc(-c2ccc3nc(N)sc3c2)cn1
2. COCCOc1ccc(-c2ccc3nc(N)sc3c2)cn1
Smaller pIC50 value, 1 vs 2 ? Identify your pick by its label.
1
(1: 4.70, 2: 5.20)

P. CCCn1cc(-c2ccc3nc(N)sc3c2)cn1
Q. CCNc1ccc(-c2ccc3nc(N)sc3c2)cn1
Smaller pIC50 value, P vs Q ? Identify your pick by its label.
P
(P: 4.90, Q: 5.20)

I. Nc1nc2ccc(-c3cc[nH]c(=O)c3)cc2s1
II. Nc1nc2ccc(-c3cnn(CC4CC4)c3)cc2s1
Field: entry with larger pIC50 (options I / II ). Identify your pick by its label.
I
(I: 5.00, II: 4.70)

A. CCn1ccc(-c2ccc3nc(N)sc3c2)cc1=O
B. COCc1ccc(-c2ccc3nc(N)sc3c2)cn1
Field: entry with larger pIC50 (options A / B ). Identify your pick by its label.
B
(B: 5.20, A: 5.00)

I. Nc1nc2ccc(-c3cccnc3)cc2s1
II. Nc1nc2ccc(-c3cnn(Cc4ccccc4)c3)cc2s1
Smaller pIC50 value, I vs II ? Identify your pick by its label.
II

P. O=c1cc(-c2ccc3nc(NCC4CCOCC4)sc3c2)ccn1CC1CC1
Q. CCN(C)c1ccc(-c2ccc3nc(N)sc3c2)cn1
Smaller pIC50 value, P vs Q ? Identify your pick by its label.
P

a. Cn1ccc(-c2ccc3nc(N)sc3c2)n1
b. Nc1nc2ccc(-c3ccc(C(F)(F)F)nc3)cc2s1
c. Nc1nc2ccc(-c3ncccn3)cc2s1
Rank entries according to their pIC50, from the largest number down. Ranked list of labels, please, in the requested order.
b, a, c

====

Below, each entry is listed alongside its reported IC50.
# target: Phosphatidylinositol 4-phosphate 5-kinase type-1 gamma (Homo sapiens, UniProt O60331)
# Sequence (O60331 whole entry): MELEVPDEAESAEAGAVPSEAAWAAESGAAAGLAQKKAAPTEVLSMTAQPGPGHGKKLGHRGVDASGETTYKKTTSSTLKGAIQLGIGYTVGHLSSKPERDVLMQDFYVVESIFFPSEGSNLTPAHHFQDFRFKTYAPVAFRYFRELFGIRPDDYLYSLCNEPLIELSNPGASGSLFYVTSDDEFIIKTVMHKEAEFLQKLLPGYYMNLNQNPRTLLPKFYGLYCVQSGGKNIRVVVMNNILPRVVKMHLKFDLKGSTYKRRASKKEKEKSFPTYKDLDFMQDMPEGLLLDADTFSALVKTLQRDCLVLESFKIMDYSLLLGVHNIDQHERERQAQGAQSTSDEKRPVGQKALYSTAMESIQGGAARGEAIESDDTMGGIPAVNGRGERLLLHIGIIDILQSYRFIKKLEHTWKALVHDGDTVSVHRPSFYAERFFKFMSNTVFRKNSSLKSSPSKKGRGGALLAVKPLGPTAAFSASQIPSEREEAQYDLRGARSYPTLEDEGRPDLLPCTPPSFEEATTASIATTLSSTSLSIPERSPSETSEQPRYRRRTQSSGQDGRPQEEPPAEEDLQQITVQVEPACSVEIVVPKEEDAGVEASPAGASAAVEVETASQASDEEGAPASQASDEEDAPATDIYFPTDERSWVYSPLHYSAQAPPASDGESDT

{"structure": "CC(C)Oc1ccc(-c2ccc3nc(N)sc3c2)cn1", "target": "Phosphatidylinositol 4-phosphate 5-kinase type-1 gamma (Homo sapiens, UniProt O60331)", "quantity_measured": "IC50", "result_value": "> 100 µM"}

Could you share what IC50 was measured for Nc1nc2ccc(-c3ccccc3)cc2s1 , tested on Phosphatidylinositol 4-phosphate 5-kinase type-1 gamma (Homo sapiens, UniProt O60331)?
> 100 µM

Could you share what IC50 was measured for Nc1nc2ccc(-c3ccc(C(F)(F)F)nc3)cc2s1 , tested on Phosphatidylinositol 4-phosphate 5-kinase type-1 gamma (Homo sapiens, UniProt O60331)?
> 100 µM
